Test system: T-47D breast
Assay: NCI tumour cell line growth inhibition, 48 h
Measure Name: GI50

Past entries and their recorded results:
CCN1c2ccccc2C(Cl)(c2ccc(N(C)C)cc2)c2ccccc21: 4.22 µM
CC(=O)O/N=C1/C(c2c(O)[nH]c3cc(Br)ccc23)=Nc2ccccc21: 2.59 µM
c1ccc(-n2nnnc2-c2cccc3ccccc23)cc1: 0.461 µM
CO[C@@H]1CC(=O)C2(CC(=O)O[C@@H]2/C=C(\C)CCC=C(C)C)C[C@@H]1O (stereo partly specified): 0.522 µM
COc1ccc2c(c1)C(c1ccccc1Cl)=Nc1c(n[nH]c1C)N2: > 17.6 µM
NC1=NC(c2ccc(Cl)cc2)C2=C(N1)/C(=C/c1ccc(Cl)cc1)CCC2 (stereo unspecified): 11.6 µM

In: Check the records and state GI50 for C=C(c1ccc(C(=O)N(C)c2ccccc2N)cc1)C(C)N1C(=O)[C@H]2CCCN2C(=O)c2ccccc21 (stereo partly specified)
Out: 16.5 µM

In: State its GI50: "COc1ccccc1C#Cc1ccccc1C#CCCCCCC#Cc1ccccc1C#Cc1ccccc1OC"
Out: 6.75 µM

In: Fill in reported GI50 for this entry: COc1ccc(Cl)cc1NC(=O)C(Br)C(Br)C(=O)O (stereo unspecified)
Out: 3.27 µM

In: Give GI50 for "Cc1c(C)[n+](=O)c(C)c(C)n1[O-]"
Out: > 100 µM

In: Please indicate GI50 recorded for "O=C(CCl)N1c2ccccc2Sc2ccc3ccccc3c21"
Out: 1.66 µM

Data provenance: PubChem BioAssay (NCI)
